# measured_target: UniProt:Q7Z2W7
# protocol_details: TRPM8 inhibition assay (menthol-induced calcium influx, FDSS)
# test_settings: HEK293 cells stably expressing human TRPM8; 100 μmol/L menthol; Fura-2AM calcium signal; read-out: TRPM8 Blocking Test (IC50/nmol/L)
pIC50: −log10 of the molar value.
pIC50 values for the compounds below.
quantity: pIC50

INSERT INTO measurements (compound, endpoint_value) VALUES
  ('CC(=O)NCc1ccc(S(=O)(=O)N(Cc2ccc(OC(F)(F)F)cc2)c2ncc3ccccc3c2C2CC2)cc1 [Example 10]', 7.62),
  ('O=c1[nH]nnn1-c1ccc(S(=O)(=O)N(Cc2ccc(OC(F)(F)F)cc2)c2ncc3ccccc3c2C2CC2)cc1 [Example 4]', 8.96),
  ('CN(C)c1cc(S(=O)(=O)N(Cc2ccc(OC(F)(F)F)cc2)c2ncc3ccccc3c2C2CC2)ccc1C(=O)O [Example 45]', 8.54),
  ('O=S(=O)(c1ccc(-c2nnn[nH]2)cc1)N(Cc1ccc(OC(F)(F)F)cc1)c1ncc2ccccc2c1C1CC1 [Example 1]', 9.52),
  ('CNc1cc(S(=O)(=O)N(Cc2ccc(OC(F)(F)F)cc2)c2ncc3ccccc3c2C2CC2)ccc1C(=O)O [Example 41]', 8.96),
  ('CC(C)c1cc(S(=O)(=O)N(Cc2ccc(OC(F)(F)F)cc2)c2ncc3ccccc3c2C2CC2)ccc1C(=O)O [Example 44]', 8.25),
  ('Cc1n[nH]c(-c2ccc(S(=O)(=O)N(Cc3ccc(OC(F)(F)F)cc3)c3ncc4ccccc4c3C(F)(F)F)cn2)n1 [Example 29]', 8.66),
  ('O=S(=O)(c1ccc(-c2ncn[nH]2)cc1)N(Cc1ccc(OC(F)(F)F)cc1)c1ncc2ccccc2c1C(F)(F)F [Example 20]', 8.49),
  ('Cc1cc(S(=O)(=O)N(Cc2ccc(OC(F)(F)F)cc2)c2nc(C3CC3)c3ccccc3c2C)ccc1C(=O)O [Example 40]', 8.19),
  ('CS(=O)(=O)NCc1ccc(S(=O)(=O)N(Cc2ccc(OC(F)(F)F)cc2)c2ncc3ccccc3c2C2CC2)cc1 [Example 11]', 7.53),
  ('O=S(=O)(c1ccc(-c2nnn[nH]2)nc1)N(Cc1ccc(OC(F)(F)F)cc1)c1ncc2ccccc2c1C(F)(F)F [Example 16]', 8.80),
  ('Cc1cc(S(=O)(=O)N(Cc2ccc(C(F)(F)F)cn2)c2ncc3ccccc3c2C2CC2)ccc1-c1ncn[nH]1 [Example 26]', 9.00),
  ('O=C(O)c1ccc(S(=O)(=O)N(Cc2ccc(OC(F)(F)F)cc2)c2ncc3ccccc3c2C2CC2)cc1N1CCCC1 [Example 58]', 8.34),
  ('Cc1n[nH]c(-c2ccc(S(=O)(=O)N(Cc3ccc(C(F)(F)F)cn3)c3ncc4ccccc4c3C3CC3)cc2C)n1 [Example 27]', 9.10);

* * *

# measured_target: human TRPM8 (Homo sapiens (Human), UniProt Q7Z2W7)
# Sequence (Q7Z2W7 whole entry): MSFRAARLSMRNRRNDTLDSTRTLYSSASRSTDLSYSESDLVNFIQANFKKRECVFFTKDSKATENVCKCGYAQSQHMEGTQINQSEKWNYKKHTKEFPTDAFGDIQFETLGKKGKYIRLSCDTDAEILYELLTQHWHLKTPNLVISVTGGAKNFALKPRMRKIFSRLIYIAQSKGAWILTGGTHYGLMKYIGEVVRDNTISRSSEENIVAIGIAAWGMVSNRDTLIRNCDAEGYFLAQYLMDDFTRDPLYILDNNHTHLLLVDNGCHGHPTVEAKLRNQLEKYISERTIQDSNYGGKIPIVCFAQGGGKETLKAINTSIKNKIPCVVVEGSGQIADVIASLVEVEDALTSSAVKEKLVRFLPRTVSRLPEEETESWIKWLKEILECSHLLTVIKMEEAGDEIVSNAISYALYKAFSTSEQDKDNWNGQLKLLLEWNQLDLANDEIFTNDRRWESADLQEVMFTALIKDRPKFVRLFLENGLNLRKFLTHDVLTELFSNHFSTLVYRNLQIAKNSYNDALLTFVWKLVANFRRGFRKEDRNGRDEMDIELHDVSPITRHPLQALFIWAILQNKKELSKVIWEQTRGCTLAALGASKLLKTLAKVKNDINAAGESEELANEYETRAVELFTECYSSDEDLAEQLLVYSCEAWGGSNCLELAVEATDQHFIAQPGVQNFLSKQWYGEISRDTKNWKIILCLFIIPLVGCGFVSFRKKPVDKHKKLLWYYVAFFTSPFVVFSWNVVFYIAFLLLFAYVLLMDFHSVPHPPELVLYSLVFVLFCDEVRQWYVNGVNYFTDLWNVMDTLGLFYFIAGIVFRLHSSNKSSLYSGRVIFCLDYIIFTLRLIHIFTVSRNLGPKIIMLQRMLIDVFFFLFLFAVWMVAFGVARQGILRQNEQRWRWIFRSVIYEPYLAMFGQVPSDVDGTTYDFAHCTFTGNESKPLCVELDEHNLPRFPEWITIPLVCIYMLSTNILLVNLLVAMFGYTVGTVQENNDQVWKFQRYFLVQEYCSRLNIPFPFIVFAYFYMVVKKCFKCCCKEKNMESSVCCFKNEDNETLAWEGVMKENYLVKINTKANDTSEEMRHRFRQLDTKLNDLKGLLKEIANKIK
# protocol_details: TRPM8 inhibition assay (menthol-induced calcium influx, FDSS)
# Format: cell-based
# test_settings: HEK293 cells stably expressing human TRPM8; 100 μmol/L menthol; Fura-2AM calcium signal; read-out: TRPM8 Blocking Test (IC50/nmol/L)
pIC50: −log10 of the molar value.
quantity: pIC50

INSERT INTO assay_data (compound, endpoint_value) VALUES
  ('O=S(=O)(c1ccc(-c2nnn[nH]2)nc1)N(Cc1ccc(OC(F)(F)F)cc1)c1ncc2ccccc2c1C1CC1 [Example 2]', 9.15),
  ('O=c1[nH]c(-c2ccc(S(=O)(=O)N(Cc3ccc(OC(F)(F)F)cc3)c3ncc4ccccc4c3C3CC3)cn2)no1 [Example 9]', 8.96),
  ('O=c1[nH]c(-c2ccc(S(=O)(=O)N(Cc3ccc(OC(F)(F)F)cc3)c3ncc4ccccc4c3C(F)(F)F)cc2)no1 [Example 8]', 8.64),
  ('Cc1c(N(Cc2ccc(OC(F)(F)F)cc2)S(=O)(=O)c2ccc(-c3noc(=O)[nH]3)cc2)nc(C2CC2)c2ccccc12 [Example 32]', 8.57),
  ('O=c1[nH]c(-c2ccc(S(=O)(=O)N(Cc3ccc(C(F)(F)F)cn3)c3ncc4ccccc4c3C3CC3)cc2)no1 [Example 31]', 8.96),
  ('Cc1n[nH]c(-c2ccc(S(=O)(=O)N(Cc3ccc(OC(F)(F)F)cc3)c3ncc4ccccc4c3C3CC3)cn2)n1 [Example 30]', 8.96),
  ('O=c1[nH]c(-c2ccc(S(=O)(=O)N(Cc3ccc(OC(F)(F)F)cc3)c3ncc4ccccc4c3C3CC3)nc2)no1 [Example 35]', 8.02),
  ('O=C(O)c1ccc(S(=O)(=O)N(Cc2ccc(OC(F)(F)F)cc2)c2ncc3ccccc3c2C2CC2)cc1N1CCOCC1 [Example 60]', 7.71),
  ('CCc1cc(S(=O)(=O)N(Cc2ccc(OC(F)(F)F)cc2)c2ncc3ccccc3c2C(F)(F)F)ccc1C(=O)O [Example 53]', 8.52),
  ('O=S(=O)(c1ccc(-c2ncn[nH]2)cc1)N(Cc1ccc(C(F)(F)F)cn1)c1ncc2ccccc2c1C1CC1 [Example 24]', 8.92),
  ('CCCc1cc(S(=O)(=O)N(Cc2ccc(OC(F)(F)F)cc2)c2ncc3ccccc3c2C2CC2)ccc1C(=O)O [Example 57]', 8.60),
  ('Cc1n[nH]c(-c2ccc(S(=O)(=O)N(Cc3ccc(C(F)(F)F)cn3)c3ncc4ccccc4c3C3CC3)cc2)n1 [Example 25]', 9.15),
  ('O=C(O)c1ccc(S(=O)(=O)N(Cc2ccc(OC(F)(F)F)cc2)c2ncc3ccccc3c2C2CC2)cc1N1CCCCC1 [Example 59]', 7.99),
  ('O=S(=O)(c1ccc(-c2ncn[nH]2)cc1)N(Cc1ccc(OC(F)(F)F)cc1)c1ncc2ccccc2c1C1CC1 [Example 5]', 8.47),
  ('COCc1cc(S(=O)(=O)N(Cc2ccc(OC(F)(F)F)cc2)c2ncc3ccccc3c2C2CC2)ccc1C(=O)O [Example 39]', 8.85),
  ('CC(C)c1cc(S(=O)(=O)N(Cc2ccc(OC(F)(F)F)cc2)c2ncc3ccccc3c2C(F)(F)F)ccc1C(=O)O [Example 56]', 8.18),
  ('O=S(=O)(c1ccc(-c2ncn[nH]2)nc1)N(Cc1ccc(OC(F)(F)F)cc1)c1ncc2ccccc2c1C(F)(F)F [Example 28]', 8.46),
  ('O=c1[nH]c(-c2ccc(S(=O)(=O)N(Cc3ccc(OC(F)(F)F)cc3)c3ncc4ccccc4c3C(F)(F)F)cn2)no1 [Example 33]', 8.44),
  ('O=C(O)c1ccc(S(=O)(=O)N(Cc2ccc(OC(F)(F)F)cc2)c2ncc3ccccc3c2C2CC2)cc1C1CC1 [Example 43]', 8.00),
  ('O=S(=O)(c1ccc(CNS(=O)(=O)C(F)(F)F)cc1)N(Cc1ccc(OC(F)(F)F)cc1)c1ncc2ccccc2c1C1CC1 [Example 12]', 7.40),
  ('Cc1cc(S(=O)(=O)N(Cc2ccc(OC(F)(F)F)cc2)c2ncc3ccccc3c2C2CC2)cc(C)c1C(=O)O [Example 51]', 7.96),
  ('O=C(O)c1ccc(S(=O)(=O)N(Cc2ccc(OC(F)(F)F)cc2)c2ncc3ccccc3c2C2CC2)cc1Cl [Example 47]', 8.42),
  ('O=C(O)c1ccc(S(=O)(=O)N(Cc2ccc(OC(F)(F)F)cc2)c2ncc3ccccc3c2C2CC2)cc1-c1ccccc1 [Example 55]', 7.87),
  ('CCc1cc(S(=O)(=O)N(Cc2ccc(OC(F)(F)F)cc2)c2ncc3ccccc3c2C2CC2)ccc1C(=O)O [Example 54]', 8.68),
  ('O=c1[nH][nH]c2cc(S(=O)(=O)N(Cc3ccc(OC(F)(F)F)cc3)c3ncc4ccccc4c3C3CC3)ccc12 [Example 13]', 8.37),
  ('O=S(=O)(c1ccc(-c2nnn[nH]2)cn1)N(Cc1ccc(OC(F)(F)F)cc1)c1ncc2ccccc2c1C1CC1 [Example 3]', 8.12),
  ('Cc1cc(C(=O)O)ccc1S(=O)(=O)N(Cc1ccc(OC(F)(F)F)cc1)c1ncc2ccccc2c1C1CC1 [Example 38]', 9.15);

* * *

# measured_target: UniProtKB Q7Z2W7
# protocol_details: TRPM8 inhibition assay (menthol-induced calcium influx, FDSS)
# test_settings: HEK293 cells stably expressing human TRPM8; 100 μmol/L menthol; Fura-2AM calcium signal; read-out: TRPM8 Blocking Test (IC50/nmol/L)
Rule: IC50 below 2 nmol/L gives Yes, anything at or above gives No.

INSERT INTO assay_data (test_smiles, class_label) VALUES
  ('O=C(O)c1ccc(S(=O)(=O)N(Cc2ccc(OC(F)(F)F)cc2)c2ncc3ccccc3c2C2CC2)cc1C(F)(F)F', 'No'),
  ('Cc1cc(S(=O)(=O)N(Cc2ccc(OC(F)(F)F)cc2)c2ncc3ccccc3c2C2CC2)cc(F)c1C(=O)O', 'Yes'),
  ('Cc1cc(S(=O)(=O)N(Cc2ccc(OC(F)(F)F)cc2)c2ncc3ccccc3c2C2CC2)ccc1-c1noc(=O)[nH]1', 'Yes'),
  ('Cc1c(N(Cc2ccc(OC(F)(F)F)cc2)S(=O)(=O)c2ccc(-c3nnn[nH]3)cc2)nc(C2CC2)c2ccccc12', 'Yes'),
  ('O=C(O)c1ccc(S(=O)(=O)N(Cc2ccc(OC(F)(F)F)cc2)c2ncc3ccccc3c2C2CC2)cc1Br', 'No'),
  ('Cc1cc(S(=O)(=O)N(Cc2ccc(OC(F)(F)F)cc2)c2ncc3ccccc3c2C2CC2)ccc1-c1ncn[nH]1', 'Yes'),
  ('O=S(=O)(c1ccc(-c2ncn[nH]2)nc1)N(Cc1ccc(OC(F)(F)F)cc1)c1ncc2ccccc2c1C1CC1', 'Yes'),
  ('O=S(=O)(c1ccc(-c2nnn[nH]2)cc1)N(Cc1ccc(C(F)(F)F)cn1)c1ncc2ccccc2c1C1CC1', 'Yes'),
  ('Cc1cc(S(=O)(=O)N(Cc2ccc(OC(F)(F)F)cc2)c2ncc3ccccc3c2C2CC2)ccc1-c1nnn[nH]1', 'Yes'),
  ('Cc1cc(S(=O)(=O)N(Cc2ccc(OC(F)(F)F)cc2)c2ncc3ccccc3c2C(F)(F)F)ccc1C(=O)O', 'No'),
  ('COc1cc(S(=O)(=O)N(Cc2ccc(OC(F)(F)F)cc2)c2ncc3ccccc3c2C2CC2)ccc1C(=O)O', 'No');
